# Emax listing for each entry below
# Target desc: D2 dopamine receptor (Homo sapiens, UniProt P14416)
# Construct: expressed in transfected cells
# Sequence (P14416 whole entry): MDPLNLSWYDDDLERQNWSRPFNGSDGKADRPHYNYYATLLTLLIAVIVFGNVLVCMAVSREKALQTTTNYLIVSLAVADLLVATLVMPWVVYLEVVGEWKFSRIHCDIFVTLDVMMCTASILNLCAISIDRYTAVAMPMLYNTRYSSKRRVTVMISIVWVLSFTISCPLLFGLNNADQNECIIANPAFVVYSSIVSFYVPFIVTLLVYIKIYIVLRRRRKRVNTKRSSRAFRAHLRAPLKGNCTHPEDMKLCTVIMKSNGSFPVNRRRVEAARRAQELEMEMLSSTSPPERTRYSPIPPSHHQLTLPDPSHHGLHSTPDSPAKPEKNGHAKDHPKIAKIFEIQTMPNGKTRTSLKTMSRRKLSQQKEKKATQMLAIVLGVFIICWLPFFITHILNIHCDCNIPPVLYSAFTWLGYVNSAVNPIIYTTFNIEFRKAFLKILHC
# Assay method text: Ca2+ flux functional assay at D2
# Format: cell-based
# Measurement context: agonist, Ca2+ flux, max dose; read-out: D2 % Act @ Max Dose
# Procedure: Disclosed compounds were tested for agonist activity at several adrenergic (Alpha1A and Alpha2A) and dopamine (D1 and D2) receptor subtypes using Ca^2+ flux functional assays, with the results summarized in Table 6. […] Functional Assays at Adrenergic and Dopamine Receptors. Agonist activity at Alpha1A, Alpha2A, D1, and D2 receptors was determined using a FLIPR Ca^2+ flux assay at WuXi AppTec (Hong Kong) Limited according to their standard protocols. […]

{"Compound": "CCCN1C[C@H](C(=O)N[C@H](C)CC)C=C2c3cccc4[nH]cc(c34)C[C@H]21 [Compound 3]", "Emax, %": 117}
{"Compound": "CCCN1C[C@H](C(=O)NC(CC)CC)C=C2c3cccc4[nH]cc(c34)C[C@H]21 [Compound 6]", "Emax, %": 91.7}
{"Compound": "CCCN1C[C@H](C(=O)N(CC)CC)C=C2c3cccc4[nH]cc(c34)C[C@H]21 [Compound 1]", "Emax, %": 94.5}
{"Compound": "CCN(CC)C(=O)[C@@H]1C=C2c3cccc4[nH]cc(c34)C[C@H]2N(C)C1 [LSD, lysergic acid diethylamide, reference compound]", "Emax, %": 78.3}
{"Compound": "CCN(CC)C(=O)[C@@H]1C=C2c3cccc4[nH]cc(c34)C[C@H]2N(CCCF)C1 [Compound 2]", "Emax, %": 91.2}
{"Compound": "CCN(CC)C(=O)[C@@H]1C=C2c3cccc4[nH]cc(c34)C[C@H]2N(Cc2ccccc2OC)C1 [Compound 10]", "Emax, %": 86.9}
{"Compound": "CCCN1C[C@H](C(=O)N2[C@@H](C)C[C@@H]2C)C=C2c3cccc4[nH]cc(c34)C[C@H]21 [Compound 4]", "Emax, %": 117}
